# Measurement Target: NaV1.1 (Homo sapiens (Human), UniProt P35498)
# Assay Overview: Sodium Influx Assay (Flux), NaV1.1;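 also: channels co-expressed with human β1 subunit and held open by modulators, cells exposed to compounds for one hour at room temperature, IC50 from percent inhibition of influx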
# Assay type: cell-based
# Condition: Trex HEK293 cells, ANG2 dye, inactivated state
Structures can show the parent of a compound that is named as a salt.
Could you please report measured IC50 for the items listed next?
Output spec: scalar in µM, unitless text.

Reported IC50 for NaV1.1 (Homo sapiens (Human), UniProt P35498), given `O=S(=O)(Nc1cscn1)c1cc(Cl)c(OCc2c(F)ccc(F)c2CN2CCC2)cc1F` ?
30

Reported IC50 for NaV1.1 (Homo sapiens (Human), UniProt P35498), given `O=S(=O)(Nc1nccs1)c1ccc(N[C@H]2CCCc3cccnc32)c(Cl)c1` ?
7.98

Reported IC50 for NaV1.1 (Homo sapiens (Human), UniProt P35498), given O=S(=O)(Nc1cscn1)c1cc(Cl)c(NCc2cccc3ccncc23)cc1F [Example 96, 2,2,2-trifluoroacetate] ?
12.6

Reported IC50 for NaV1.1 (Homo sapiens (Human), UniProt P35498), given `O=S(=O)(Nc1nccs1)c1cc(Cl)c(N[C@@H]2CCCc3ccccc32)cc1F` ?
0.941

Reported IC50 for NaV1.1 (Homo sapiens (Human), UniProt P35498), given `CC[C@H](Nc1cc(F)c(S(=O)(=O)Nc2nccs2)cc1Cl)c1ccccc1C` ?
3.24

Reported IC50 for NaV1.1 (Homo sapiens (Human), UniProt P35498), given O=S(=O)(Nc1cscn1)c1cc(Cl)c(NCc2c(F)ccc(F)c2CN2CCC2)cc1F [Example 288, hydrochloride] ?
11.8

Reported IC50 for NaV1.1 (Homo sapiens (Human), UniProt P35498), given `CC[C@H](Nc1ccc(S(=O)(=O)Nc2ncns2)cc1Cl)c1ccccc1` ?
1.06

Reported IC50 for NaV1.1 (Homo sapiens (Human), UniProt P35498), given `C[C@H](Nc1ccc(S(=O)(=O)Nc2cscn2)cc1C#N)c1ccccc1F` ?
27

Reported IC50 for NaV1.1 (Homo sapiens (Human), UniProt P35498), given `O=S(=O)(Nc1cscn1)c1cc(Cl)c(NC2(c3cc(F)ccc3F)CC2)cc1F` ?
9.82

Reported IC50 for NaV1.1 (Homo sapiens (Human), UniProt P35498), given `O=S(=O)(Nc1ccncn1)c1cc(Cl)c(NC2(c3cc(F)ccc3F)CC2)cc1F` ?
26.8

Reported IC50 for NaV1.1 (Homo sapiens (Human), UniProt P35498), given O=S(=O)(Nc1cscn1)c1c(F)cc(NCc2cccc(F)c2CN2CCC2)c(Cl)c1F [Example 197, 2,2,2-trifluoroacetate] ?
12

Reported IC50 for NaV1.1 (Homo sapiens (Human), UniProt P35498), given `O=S(=O)(Nc1nccs1)c1ccc(NC2(c3ccccc3)COC2)c(Cl)c1` ?
16.6

Reported IC50 for NaV1.1 (Homo sapiens (Human), UniProt P35498), given `C[C@H](Oc1cc(F)c(S(=O)(=O)Nc2nccs2)cc1F)c1ccccc1F` ?
4.74

Reported IC50 for NaV1.1 (Homo sapiens (Human), UniProt P35498), given `O=S(=O)(Nc1cscn1)c1cc(Cl)c(NC2(c3ccc(F)cc3F)CC2)cc1F` ?
7.76

Reported IC50 for NaV1.1 (Homo sapiens (Human), UniProt P35498), given `C[C@H](Oc1cc(F)c(S(=O)(=O)Nc2cscn2)c(F)c1)c1ccccc1F` ?
21.2

Reported IC50 for NaV1.1 (Homo sapiens (Human), UniProt P35498), given CN(Cc1c(F)ccc(F)c1CN1CCC1)c1cc(F)c(S(=O)(=O)Nc2cscn2)c(F)c1 [Example 284, 2,2,2-trifluoroacetate] ?
30

---

Could you please report measured pIC50 for the items listed next?
# Measurement Target: NaV1.5 (Homo sapiens (Human), UniProt Q14524)
# Sequence (Q14524 other isoform, or with tags, fused parts or gaps): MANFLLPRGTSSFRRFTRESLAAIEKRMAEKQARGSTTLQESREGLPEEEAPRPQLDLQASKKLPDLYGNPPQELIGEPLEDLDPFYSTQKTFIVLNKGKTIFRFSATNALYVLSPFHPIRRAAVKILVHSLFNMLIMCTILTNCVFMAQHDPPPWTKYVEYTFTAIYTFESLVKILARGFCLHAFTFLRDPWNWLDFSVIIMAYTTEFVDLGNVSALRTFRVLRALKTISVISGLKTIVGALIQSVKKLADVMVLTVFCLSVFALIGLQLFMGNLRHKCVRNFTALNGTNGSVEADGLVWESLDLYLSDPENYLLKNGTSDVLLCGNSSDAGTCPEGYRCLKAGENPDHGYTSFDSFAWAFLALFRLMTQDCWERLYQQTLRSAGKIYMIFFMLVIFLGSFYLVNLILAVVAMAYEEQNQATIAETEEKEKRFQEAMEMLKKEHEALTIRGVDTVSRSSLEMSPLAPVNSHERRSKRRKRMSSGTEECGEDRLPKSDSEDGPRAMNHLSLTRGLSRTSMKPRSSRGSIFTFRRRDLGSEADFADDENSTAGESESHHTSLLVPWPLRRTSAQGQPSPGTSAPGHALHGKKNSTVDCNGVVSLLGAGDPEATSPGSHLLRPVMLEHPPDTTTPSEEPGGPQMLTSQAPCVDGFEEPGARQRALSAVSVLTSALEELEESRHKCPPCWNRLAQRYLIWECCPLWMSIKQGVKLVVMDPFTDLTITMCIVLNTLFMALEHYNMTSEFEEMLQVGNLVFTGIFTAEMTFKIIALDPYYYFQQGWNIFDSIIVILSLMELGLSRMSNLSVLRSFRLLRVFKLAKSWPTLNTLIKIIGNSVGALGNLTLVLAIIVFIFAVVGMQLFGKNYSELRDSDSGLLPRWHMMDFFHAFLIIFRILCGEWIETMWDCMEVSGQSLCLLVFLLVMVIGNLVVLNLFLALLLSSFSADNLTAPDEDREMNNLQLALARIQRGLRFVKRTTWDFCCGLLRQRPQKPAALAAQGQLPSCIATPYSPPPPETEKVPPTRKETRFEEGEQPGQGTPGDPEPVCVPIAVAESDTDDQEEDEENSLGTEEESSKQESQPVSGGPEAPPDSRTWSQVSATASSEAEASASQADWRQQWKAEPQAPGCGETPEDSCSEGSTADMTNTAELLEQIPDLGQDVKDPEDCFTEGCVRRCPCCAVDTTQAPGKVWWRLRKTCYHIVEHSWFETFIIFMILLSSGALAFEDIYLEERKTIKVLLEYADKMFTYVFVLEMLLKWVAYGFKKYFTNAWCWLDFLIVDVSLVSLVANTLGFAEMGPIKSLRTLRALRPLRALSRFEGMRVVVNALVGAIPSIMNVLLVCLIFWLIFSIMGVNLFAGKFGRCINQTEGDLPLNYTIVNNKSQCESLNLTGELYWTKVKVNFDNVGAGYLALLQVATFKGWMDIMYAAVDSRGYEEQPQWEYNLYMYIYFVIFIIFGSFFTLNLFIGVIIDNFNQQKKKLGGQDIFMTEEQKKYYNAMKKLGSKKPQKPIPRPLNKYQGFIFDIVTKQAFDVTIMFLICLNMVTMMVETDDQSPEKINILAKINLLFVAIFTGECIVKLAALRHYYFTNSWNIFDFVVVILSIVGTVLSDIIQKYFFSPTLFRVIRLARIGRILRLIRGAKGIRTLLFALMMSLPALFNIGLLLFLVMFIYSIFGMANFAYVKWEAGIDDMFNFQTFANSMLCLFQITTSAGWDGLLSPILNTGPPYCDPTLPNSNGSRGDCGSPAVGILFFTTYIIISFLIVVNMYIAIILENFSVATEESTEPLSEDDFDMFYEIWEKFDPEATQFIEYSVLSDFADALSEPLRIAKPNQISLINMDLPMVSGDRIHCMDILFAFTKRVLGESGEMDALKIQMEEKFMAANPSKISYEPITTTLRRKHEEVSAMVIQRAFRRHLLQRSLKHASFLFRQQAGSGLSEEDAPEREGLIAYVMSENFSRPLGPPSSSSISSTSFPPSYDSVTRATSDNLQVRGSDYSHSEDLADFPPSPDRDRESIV
# Assay Overview: Sodium Influx Assay (Flux), NaV1.5
# Condition: read-out: Flux NaV1.5 IC50; Trex HEK293 cells, ANG2 dye, inactivated state
Scale: pIC50 equals -log10([C]), with [C] in mol/L.

Reported pIC50 for NaV1.5 (Homo sapiens (Human), UniProt Q14524), given O=S(=O)(Nc1nccs1)c1cc(Cl)c(N[C@@H]2CCCc3ccccc32)cc1F [Example 102] ?
5.22

Reported pIC50 for NaV1.5 (Homo sapiens (Human), UniProt Q14524), given C[C@H](Nc1cc(F)c(S(=O)(=O)Nc2nccs2)cc1Cl)c1ccc(Cl)cc1 [Example 14] ?
4.84

Reported pIC50 for NaV1.5 (Homo sapiens (Human), UniProt Q14524), given Cc1c(NCc2ccccc2CN2CCC2)cc(F)c(S(=O)(=O)Nc2ncns2)c1F [Example 330] ?
4.52

Reported pIC50 for NaV1.5 (Homo sapiens (Human), UniProt Q14524), given O=S(=O)(Nc1cscn1)c1cc(F)c(NCc2c(F)cccc2CN2CCC2)cc1F [Example 308] ?
4.58

---

# Measurement Target: NaV1.1 (Homo sapiens (Human), UniProt P35498)
# Assay Overview: Electrophysiological Assay (EP), patch voltage clamp, NaV1.1;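 also: sodium current block measured at ambient temperature, holding at fully inactivating potential, 20 ms repolarization to −150 mV before test pulse, versus 0.5% DMSO control currents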
# Assay type: cell-based
# Condition: HEK-293 cells, whole-cell patch clamp
Could you please report measured pIC50 for the items listed next?
Scale: pIC50 equals -log10([C]), with [C] in mol/L.

Consider the molecule shown here: `C[C@H](Nc1ccc(S(=O)(=O)Nc2ccncn2)cc1C(F)(F)F)c1cc(F)ccc1F` What is its recorded pIC50?
5.00

Consider the molecule shown here: `C[C@H](Nc1cc(F)c(S(=O)(=O)Nc2cnccn2)cc1Cl)c1cc(Cl)ccc1F` What is its recorded pIC50?
5.00

Consider the molecule shown here: `C[C@H](Nc1cc(F)c(S(=O)(=O)Nc2nccs2)cc1Cl)c1ccccc1Cl` What is its recorded pIC50?
5.51

Consider the molecule shown here: `C[C@H](Nc1cc(F)c(S(=O)(=O)Nc2nccs2)cc1F)c1ccccc1F` What is its recorded pIC50?
5.60

---

# Measurement Target: NaV1.1 (Homo sapiens (Human))
# Assay Overview: Sodium Influx Assay (Flux), NaV1.1
# Format: cell-based
# Condition: Trex HEK293 cells, ANG2 dye, inactivated state
Where a name gives a salt, the structure may show the parent alone.
Readout Label: IC50

Consider the compound shown here: `C[C@H](Nc1cc(F)c(S(=O)(=O)Nc2cscn2)cc1Cl)c1cc(OC(F)F)ccc1F` What is its recorded IC50?
7.06 µM

Consider the compound shown here: `C[C@H](Nc1cc(F)c(S(=O)(=O)Nc2nccs2)cc1Cl)c1cccc(C(F)(F)F)c1` What is its recorded IC50?
3.38 µM

Consider the compound shown here: `COCc1cccc(F)c1CNc1cc(F)c(S(=O)(=O)Nc2cscn2)cc1Cl` What is its recorded IC50?
28.4 µM

Consider the compound shown here: `O=S(=O)(Nc1cscn1)c1c(F)cc(NCc2ccccc2CCN2CC(F)(F)C2)cc1F` What is its recorded IC50?
18 µM

Consider the compound shown here: CC(C)(C)NCc1cccc(F)c1CNc1cc(F)c(S(=O)(=O)Nc2cscn2)c(F)c1 [Example 178, formate] What is its recorded IC50?
13.4 µM

Consider the compound shown here: `O=S(=O)(Nc1cscn1)c1c(F)cc(N[C@@H]2C[C@H](N3CCC3)c3ccccc32)cc1F` What is its recorded IC50?
4.27 µM

Consider the compound shown here: CCN(CC)Cc1cccc(F)c1CNc1cc(F)c(S(=O)(=O)Nc2cscn2)c(F)c1 [Example 183, formate] What is its recorded IC50?
30 µM

Consider the compound shown here: O=S(=O)(Nc1nccs1)c1cc(Cl)c(N[C@H](CN2CCC2)c2ccccc2)cc1F [Example 67, 2,2,2-trifluoroacetate] What is its recorded IC50?
10.6 µM

---

Could you please report measured IC50 for the items listed next?
# Measurement Target: NaV1.6 (Homo sapiens (Human))
# Sequence (Q9UQD0 whole entry): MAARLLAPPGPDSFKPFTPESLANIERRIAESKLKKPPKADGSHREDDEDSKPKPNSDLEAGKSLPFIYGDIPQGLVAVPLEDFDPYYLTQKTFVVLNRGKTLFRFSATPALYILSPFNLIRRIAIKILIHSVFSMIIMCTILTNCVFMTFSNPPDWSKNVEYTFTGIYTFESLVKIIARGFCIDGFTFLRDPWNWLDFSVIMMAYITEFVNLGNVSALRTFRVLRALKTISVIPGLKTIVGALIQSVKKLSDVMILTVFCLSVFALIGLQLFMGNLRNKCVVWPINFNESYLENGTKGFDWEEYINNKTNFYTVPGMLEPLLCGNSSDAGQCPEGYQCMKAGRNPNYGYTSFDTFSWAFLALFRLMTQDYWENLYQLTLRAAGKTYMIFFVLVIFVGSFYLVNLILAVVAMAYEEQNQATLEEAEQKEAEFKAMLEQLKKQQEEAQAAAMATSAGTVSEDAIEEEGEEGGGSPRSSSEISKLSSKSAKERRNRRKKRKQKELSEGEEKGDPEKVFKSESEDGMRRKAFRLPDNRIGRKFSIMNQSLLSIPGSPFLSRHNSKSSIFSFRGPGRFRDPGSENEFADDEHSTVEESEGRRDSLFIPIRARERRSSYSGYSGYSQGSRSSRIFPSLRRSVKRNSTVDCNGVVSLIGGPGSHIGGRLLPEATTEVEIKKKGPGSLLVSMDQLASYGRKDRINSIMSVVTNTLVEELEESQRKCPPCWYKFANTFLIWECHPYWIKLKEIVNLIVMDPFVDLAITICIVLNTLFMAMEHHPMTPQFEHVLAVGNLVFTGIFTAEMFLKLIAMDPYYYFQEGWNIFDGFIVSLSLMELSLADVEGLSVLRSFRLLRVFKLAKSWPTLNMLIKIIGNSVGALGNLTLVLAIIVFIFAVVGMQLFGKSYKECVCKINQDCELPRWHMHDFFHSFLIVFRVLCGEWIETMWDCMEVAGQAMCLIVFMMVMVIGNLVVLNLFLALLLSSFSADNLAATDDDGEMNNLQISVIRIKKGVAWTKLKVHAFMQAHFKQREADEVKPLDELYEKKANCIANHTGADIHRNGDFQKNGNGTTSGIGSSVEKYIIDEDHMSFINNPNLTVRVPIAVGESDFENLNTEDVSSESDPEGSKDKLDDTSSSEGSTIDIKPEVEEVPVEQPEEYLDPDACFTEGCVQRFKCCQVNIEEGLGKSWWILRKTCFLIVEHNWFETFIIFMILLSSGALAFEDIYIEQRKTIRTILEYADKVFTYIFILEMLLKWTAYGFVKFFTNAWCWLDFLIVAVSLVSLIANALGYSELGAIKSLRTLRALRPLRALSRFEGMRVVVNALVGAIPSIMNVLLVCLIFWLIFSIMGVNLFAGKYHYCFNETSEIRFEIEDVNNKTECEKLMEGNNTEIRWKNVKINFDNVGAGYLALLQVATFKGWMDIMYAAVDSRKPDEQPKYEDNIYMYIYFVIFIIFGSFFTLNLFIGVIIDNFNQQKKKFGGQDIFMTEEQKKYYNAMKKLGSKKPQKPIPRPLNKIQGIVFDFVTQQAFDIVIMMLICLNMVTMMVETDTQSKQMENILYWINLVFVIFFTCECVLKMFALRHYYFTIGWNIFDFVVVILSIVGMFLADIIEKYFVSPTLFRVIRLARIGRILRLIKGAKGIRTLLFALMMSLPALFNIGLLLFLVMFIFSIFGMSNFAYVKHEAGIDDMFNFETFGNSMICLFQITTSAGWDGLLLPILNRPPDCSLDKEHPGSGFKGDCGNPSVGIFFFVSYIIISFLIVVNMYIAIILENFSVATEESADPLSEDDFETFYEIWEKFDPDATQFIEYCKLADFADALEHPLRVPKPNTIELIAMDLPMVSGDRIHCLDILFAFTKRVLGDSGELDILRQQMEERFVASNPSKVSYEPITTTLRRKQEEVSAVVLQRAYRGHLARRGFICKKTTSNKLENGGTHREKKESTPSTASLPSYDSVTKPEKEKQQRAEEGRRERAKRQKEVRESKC
# Assay Overview: Electrophysiological Assay (EP), patch voltage clamp, NaV1.6;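 also: sodium current recorded at ambient temperature, channels held inactivated then briefly repolarized to −150 mV for 20 ms before a test pulse, control currents in 0.5% DMSO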
# Type: cell-based
# Condition: HEK-293 cells, whole-cell patch clamp
Where a name gives a salt, the structure may show the parent alone.
Output spec: scalar in µM, unitless text.

Reported IC50 for NaV1.6 (Homo sapiens (Human)), given CC[C@H](Nc1cc(F)c(S(=O)(=O)Nc2nccs2)cc1Cl)c1ccccc1C [Example 54] ?
0.025

Reported IC50 for NaV1.6 (Homo sapiens (Human)), given C[C@H](Nc1cc(F)c(S(=O)(=O)Nc2ncc(F)s2)cc1Cl)c1ccccc1F [Example 266] ?
0.015

Reported IC50 for NaV1.6 (Homo sapiens (Human)), given C[C@H](Nc1ccc(S(=O)(=O)Nc2ccncn2)c(F)c1Cl)c1ccccc1Cl [Example 191] ?
0.112

Reported IC50 for NaV1.6 (Homo sapiens (Human)), given C[C@H](Oc1ccc(S(=O)(=O)Nc2nccs2)c(F)c1Cl)c1ccccc1F [Example 10] ?
0.128

Reported IC50 for NaV1.6 (Homo sapiens (Human)), given Cc1cc(-c2cccc(F)c2CNc2cc(F)c(S(=O)(=O)Nc3cscn3)c(F)c2)ccn1 [Example 317, formate] ?
0.982

Reported IC50 for NaV1.6 (Homo sapiens (Human)), given O=S(=O)(Nc1cscn1)c1ccc(NCc2c(F)ccc(F)c2CN2CCC2)c(F)c1F [Example 213, 2,2,2-trifluoroacetate] ?
0.021

Reported IC50 for NaV1.6 (Homo sapiens (Human)), given O=S(=O)(Nc1ccncn1)c1cc(Cl)c(N[C@H](c2cc(Cl)ccc2F)C(F)(F)F)cc1F [Example 270] ?
0.018

Reported IC50 for NaV1.6 (Homo sapiens (Human)), given C[C@H](Nc1cc(F)c(S(=O)(=O)Nc2cscn2)cc1Cl)c1cc(Cl)ccc1F [Example 5] ?
0.152

Reported IC50 for NaV1.6 (Homo sapiens (Human)), given O=S(=O)(Nc1nccs1)c1ccc(NC2(c3ccccc3)CCC2)c(Cl)c1 [Example 104] ?
0.153

Reported IC50 for NaV1.6 (Homo sapiens (Human)), given O=S(=O)(Nc1cscn1)c1c(F)cc(NCc2c(F)ccc(F)c2CN2CCC2)cc1F [Example 283] ?
0.011

Reported IC50 for NaV1.6 (Homo sapiens (Human)), given C[C@H](Nc1cc(F)c(S(=O)(=O)Nc2cscn2)c(F)c1)c1cc(Cl)ccc1F [Example 207, 2,2,2-trifluoroacetate] ?
0.121

Reported IC50 for NaV1.6 (Homo sapiens (Human)), given O=S(=O)(Nc1cccc(F)n1)c1cc(Cl)c(NCc2cccc3ccncc23)cc1F [Example 62] ?
0.052

Reported IC50 for NaV1.6 (Homo sapiens (Human)), given C[C@H](Nc1ccc(S(=O)(=O)Nc2nccs2)c(F)c1Cl)c1ccccc1F [Example 9] ?
0.026

Reported IC50 for NaV1.6 (Homo sapiens (Human)), given CC[C@@H](Nc1ccc(S(=O)(=O)Nc2ncns2)cc1Cl)c1ccccc1 [Example 31] ?
0.118

Reported IC50 for NaV1.6 (Homo sapiens (Human)), given O=S(=O)(Nc1cscn1)c1c(F)cc(NCc2c(F)cccc2CN2CC(F)C2)cc1F [Example 194, formate] ?
0.043

Reported IC50 for NaV1.6 (Homo sapiens (Human)), given O=S(=O)(Nc1cccc(F)n1)c1c(F)cc(NCc2c(F)cccc2CN2CCC2)cc1F [Example 322, formate] ?
0.047

Reported IC50 for NaV1.6 (Homo sapiens (Human)), given C[C@H](Oc1cc(F)c(S(=O)(=O)Nc2cscn2)cc1Cl)c1c(F)cccc1F [Example 120] ?
0.717

Reported IC50 for NaV1.6 (Homo sapiens (Human)), given O=S(=O)(Nc1cscn1)c1cc(Cl)c(NC2(c3ccccc3)CC2)cc1F [Example 20] ?
1.18

Reported IC50 for NaV1.6 (Homo sapiens (Human)), given CC[C@H](Nc1cc(F)c(S(=O)(=O)Nc2ncc(F)s2)cc1Cl)c1ccccc1 [Example 265] ?
0.018

Reported IC50 for NaV1.6 (Homo sapiens (Human)), given CC[C@H](Nc1cc(F)c(S(=O)(=O)Nc2nccs2)cc1Cl)c1ccccc1 [Example 40] ?
0.024

Reported IC50 for NaV1.6 (Homo sapiens (Human)), given C[C@H](Oc1cc(F)c(S(=O)(=O)Nc2cscn2)cc1Cl)c1ccccc1F [Example 101] ?
0.462

Reported IC50 for NaV1.6 (Homo sapiens (Human)), given O=S(=O)(Nc1nccs1)c1cc(Cl)c(OCc2ccccc2CN2CCC2)cc1F [Example 136] ?
0.041

Reported IC50 for NaV1.6 (Homo sapiens (Human)), given O=S(=O)(Nc1cccc(F)n1)c1cc(Cl)c(NCc2c(F)cccc2CN2CCC2)cc1F [Example 138] ?
0.043

Reported IC50 for NaV1.6 (Homo sapiens (Human)), given CC[C@H](Nc1ccc(S(=O)(=O)Nc2ncns2)cc1Cl)c1ccccc1 [Example 32] ?
0.023

Reported IC50 for NaV1.6 (Homo sapiens (Human)), given O=S(=O)(Nc1cscn1)c1c(F)cc(NCc2c(Cl)cccc2CN2CCC2)cc1F [Example 290, 2,2,2-trifluoroacetate] ?
0.011

Reported IC50 for NaV1.6 (Homo sapiens (Human)), given O=S(=O)(Nc1nccs1)c1cc(Cl)c(OCc2cccc3ccncc23)cc1F [Example 11] ?
0.034

Reported IC50 for NaV1.6 (Homo sapiens (Human)), given C[C@H](Oc1cc(F)c(S(=O)(=O)Nc2nccs2)cc1Cl)c1ccccc1F [Example 116] ?
0.037

Reported IC50 for NaV1.6 (Homo sapiens (Human)), given C[C@H](Nc1cc(F)c(S(=O)(=O)Nc2nccs2)cc1Cl)c1cc(Cl)ccc1F [Example 8] ?
0.01

Reported IC50 for NaV1.6 (Homo sapiens (Human)), given O=S(=O)(Nc1cscn1)c1ccc(NCc2c(F)cccc2CN2CCC2)c(Cl)c1F [Example 192, formate] ?
0.015

Reported IC50 for NaV1.6 (Homo sapiens (Human)), given CCC(Nc1cc(F)c(S(=O)(=O)Nc2cccc(F)n2)cc1Cl)c1ccccc1 (centres unmarked) [Example 86] ?
0.558

Reported IC50 for NaV1.6 (Homo sapiens (Human)), given CC[C@H](Nc1cc(F)c(S(=O)(=O)Nc2nccs2)cc1Cl)c1ccccc1F [Example 47] ?
0.01

Reported IC50 for NaV1.6 (Homo sapiens (Human)), given CN(C)C[C@H](Nc1cc(F)c(S(=O)(=O)Nc2nccs2)cc1Cl)c1ccccc1 [Example 65, 2,2,2-trifluoroacetate] ?
0.087
